solvation free energy, 298 K for assorted compounds
# run description: solvent given as SMILES
# conditions: in CCCO

# compound, solvation free energy, 298 K, kcal/mol
data = [
    ("FS(F)(F)(F)(F)F", 0.18),
    ("CC(C)OC(C)C", -3.79),
    ("O=C(O)CCCCCCCCC(=O)O", -17.2),
    ("c1ccc2c(c1)Cc1ccccc1O2", -9.41),
    ("CC(C)Cc1ccc(C(C)C(=O)O)cc1 (stereo not given)", -13.2),
    ("COc1cc(C(C)=O)cc(-c2cc(C(C)=O)cc(OC)c2O)c1O", -21.1),
    ("FC(Cl)(Cl)C(F)(Cl)Cl", -3.64),
    ("c1ccsc1", -3.71),
    ("CCCCCO", -6.78),
    ("CCCC(C)C", -3.01),
]

###

# run description: solvent given as SMILES
# conditions: in ClC(Cl)Cl
measurement type: solvation free energy, 298 K

# smiles notation, measurement type, meas value
data = [
    ("c1ccccc1", "solvation free energy, 298 K", "-20 kJ/mol"),
    ("[N-]=[N+]=O", "solvation free energy, 298 K", "-4.06 kJ/mol"),
    ("CCCC(C)C", "solvation free energy, 298 K", "-15.6 kJ/mol"),
    ("ClCCCl", "solvation free energy, 298 K", "-19.6 kJ/mol"),
]

###

# run description: solvent given as SMILES
# conditions: in ClC(Cl)(Cl)Cl

# smiles notation, solvation free energy, 298 K [kcal/mol]
rows = [
    ("ClCCCl", -4.3),
    ("CN(C)C(=O)Nc1ccc(Cl)cc1", -11.1),
    ("CCBr", -3.45),
    ("c1ccccc1", -4.42),
    ("CN", -2.33),
    ("CC(C)CC(C)C", -4.29),
    ("CCCBr", -4.17),
    ("[N-]=[N+]=O", -0.86),
    ("CCCOCCC", -4.83),
    ("O=O", 0.71),
    ("CCCCCCC(C)=O", -6.7),
    ("FS(F)(F)(F)(F)F", -0.03),
    ("C=C", -0.78),
    ("Clc1ccccc1Cl", -6.79),
    ("CN(C)C", -2.89),
    ("Cc1ccc(C)cc1", -5.73),
    ("CCCC(C)C", -3.85),
]

###

# run description: solvent given as SMILES
# conditions: in c1ccccc1
measurement type: solvation free energy, 298 K (kJ/mol)

# smiles notation, meas value
measured = [
    ("ClCCCl", -19.6),
    ("C=C", -2.76),
    ("C1=CCCCC1", -18.7),
    ("S=C=S", -15.1),
    ("CCCC(C)C", -15.1),
    ("CC(C)[N+](=O)[O-]", -21.2),
    ("COC(=O)OC", -19.5),
    ("CC(C)(C)Cl", -16.4),
    ("c1ccsc1", -19.5),
    ("CC(C)CC(C)C", -16.9),
    ("Cc1ccccc1", -22.3),
    ("C1CCCCC1", -17.7),
]
